# Percent Blocking at 100 nM Antibody (STAT5-Luc reporter) per record follows
Target: T1, human PRLR on cells (endogenous on T47D, T47D#11, MCF7); introduced in HEK293/hPRLR/STAT5-Luc, 293/hPRLR, … (human, UniProt P16471 25-622)
T1 sequence: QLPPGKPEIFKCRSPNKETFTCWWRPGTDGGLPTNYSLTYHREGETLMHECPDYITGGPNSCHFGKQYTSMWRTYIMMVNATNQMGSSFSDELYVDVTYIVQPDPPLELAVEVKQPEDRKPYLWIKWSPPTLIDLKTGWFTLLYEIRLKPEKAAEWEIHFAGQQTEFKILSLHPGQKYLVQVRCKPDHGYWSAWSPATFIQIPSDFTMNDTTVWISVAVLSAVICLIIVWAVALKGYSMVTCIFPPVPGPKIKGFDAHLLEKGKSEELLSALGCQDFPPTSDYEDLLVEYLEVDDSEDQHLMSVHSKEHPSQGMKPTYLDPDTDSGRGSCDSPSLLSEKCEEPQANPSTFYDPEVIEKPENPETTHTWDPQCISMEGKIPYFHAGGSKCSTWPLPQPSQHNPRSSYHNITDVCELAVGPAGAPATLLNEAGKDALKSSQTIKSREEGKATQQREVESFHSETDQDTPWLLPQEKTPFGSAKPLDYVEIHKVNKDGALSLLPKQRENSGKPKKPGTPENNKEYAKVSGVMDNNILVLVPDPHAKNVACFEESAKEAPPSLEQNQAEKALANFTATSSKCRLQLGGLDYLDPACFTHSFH
Assay: cell-based or functional assay
assay_metric: Percent Blocking at 100 nM Antibody (STAT5-Luc reporter) (%)

INSERT INTO assay_data (binder, measure_unit, measured) VALUES
  ('H1H6790P (antibody, human IgG1, V domains shown, human IgG1 Fc (H1H)) VH: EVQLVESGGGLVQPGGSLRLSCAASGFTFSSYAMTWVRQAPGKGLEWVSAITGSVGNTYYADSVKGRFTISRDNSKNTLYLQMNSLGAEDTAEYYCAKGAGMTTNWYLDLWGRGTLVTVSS VL: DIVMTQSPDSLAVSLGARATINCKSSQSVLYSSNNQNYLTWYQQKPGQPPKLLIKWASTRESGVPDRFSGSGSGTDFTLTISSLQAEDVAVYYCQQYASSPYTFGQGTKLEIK', '%', 100),
  ('H1H6960N (antibody, human IgG1, V domains shown, also called H2M6960N) VH: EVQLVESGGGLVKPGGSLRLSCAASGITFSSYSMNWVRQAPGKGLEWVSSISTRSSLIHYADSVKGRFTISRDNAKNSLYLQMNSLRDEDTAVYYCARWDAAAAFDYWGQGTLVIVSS VL: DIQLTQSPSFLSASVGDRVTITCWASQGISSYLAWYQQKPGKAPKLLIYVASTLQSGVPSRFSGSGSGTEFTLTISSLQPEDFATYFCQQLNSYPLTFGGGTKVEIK', '%', 100),
  ('H1H6959N2 (antibody, human IgG1, V domains shown, also called H2M6959N2) VH: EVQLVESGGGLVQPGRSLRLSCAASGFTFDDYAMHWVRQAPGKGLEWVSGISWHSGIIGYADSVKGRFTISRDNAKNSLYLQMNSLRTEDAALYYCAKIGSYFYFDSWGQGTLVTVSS VL: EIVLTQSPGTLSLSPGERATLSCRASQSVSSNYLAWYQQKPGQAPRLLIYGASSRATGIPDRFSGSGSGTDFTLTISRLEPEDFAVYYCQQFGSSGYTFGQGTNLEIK', '%', 52),
  ('H1H6774P (antibody, human IgG1, V domains shown, human IgG1 Fc (H1H)) VH: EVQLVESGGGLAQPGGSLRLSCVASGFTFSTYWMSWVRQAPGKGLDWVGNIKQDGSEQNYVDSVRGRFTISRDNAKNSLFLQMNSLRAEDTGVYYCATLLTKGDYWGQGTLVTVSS VL: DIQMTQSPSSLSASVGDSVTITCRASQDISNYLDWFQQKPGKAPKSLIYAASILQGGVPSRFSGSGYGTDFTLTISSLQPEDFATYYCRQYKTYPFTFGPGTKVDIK', '%', 0);
